Attribution: patent US20240409557A1

study.system: human recombinant 15-PGDH (Homo sapiens)
Sequence (P15428 1-266): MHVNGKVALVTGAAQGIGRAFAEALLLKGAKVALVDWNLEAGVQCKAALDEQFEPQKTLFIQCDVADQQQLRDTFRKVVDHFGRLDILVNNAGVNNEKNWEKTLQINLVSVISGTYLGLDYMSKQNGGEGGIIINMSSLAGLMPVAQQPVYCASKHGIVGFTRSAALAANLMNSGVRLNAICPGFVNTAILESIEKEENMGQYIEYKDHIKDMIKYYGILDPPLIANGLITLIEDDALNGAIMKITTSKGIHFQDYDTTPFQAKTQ
experiment: Recombinant 15-PGDH enzymatic inhibition assay (PGDH-Lumi, NADH signal)
run.parameters: recombinant 15-PGDH; 15 min pre-incubation, 60 min reaction with PGE2 and NAD+, NADH signal
// IC50 lookup, one value per entry
Just the number in nM, nothing appended.

* CN1CCC(C(O)c2cc3ccc(-c4cnc5nn(C)cc5c4)nc3s2)C1 (stereo not shown) | 20.7
* CO[C@]1(C)C[C@@](O)(c2cc3ccc(-c4cnc5c(c4)nnn5C)nc3s2)C1 (single isomer, unassigned) [Compound C102C] | 0.971

Give recorded IC50 with human recombinant 15-PGDH (Homo sapiens) for the following compound: OC1(c2cc3ccc(-c4cnc5[nH]ncc5c4)nc3s2)CC(F)(F)C1
0.756

Give recorded IC50 with human recombinant 15-PGDH (Homo sapiens) for the following compound: Cn1cnc(-c2ccc3cc(C(O)C4CC(F)(F)C4)sc3n2)cc1=O (stereo not shown)
0.608

Give recorded IC50 with human recombinant 15-PGDH (Homo sapiens) for the following compound: CC(C)C(O)c1cc2ccc(-c3cnc4nn(C)cc4c3)nc2s1 (stereo not shown)
0.517

Give recorded IC50 with human recombinant 15-PGDH (Homo sapiens) for the following compound: CC(C)[C@@H](O)c1cc2ccc(-c3cnc4nn(C)cc4c3)nc2s1 (single isomer, unassigned) [Compound B24R]
0.258

Give recorded IC50 with human recombinant 15-PGDH (Homo sapiens) for the following compound: Cn1cc2cc(-c3ccc4cc([C@]5(O)C[C@@H](C6CC6)C5)sc4n3)cnc2n1 (single isomer, unassigned) [Compound C62C]
0.366

Give recorded IC50 with human recombinant 15-PGDH (Homo sapiens) for the following compound: COCCC(C)(O)c1cc2ccc(-c3cnc4nn(C)cc4c3)nc2s1 (stereo not shown)
43.8

Give recorded IC50 with human recombinant 15-PGDH (Homo sapiens) for the following compound: Cn1nnc2cc(-c3ccc4cc([C@]5(O)C[C@@H](OC(F)(F)F)C5)sc4n3)cnc21 [Compound C101C]
0.496

Give recorded IC50 with human recombinant 15-PGDH (Homo sapiens) for the following compound: Cn1cc2cc(-c3ccc4sc([C@]5(O)C[C@@H](OC(F)(F)F)C5)cc4n3)cnc2n1 [Compound C117C]
0.429

====

study.system: human recombinant 15-PGDH (Homo sapiens)
experiment: Recombinant 15-PGDH enzymatic inhibition assay (PGDH-Lumi, NADH signal)
run.parameters: recombinant 15-PGDH; 15 min pre-incubation, 60 min reaction with PGE2 and NAD+, NADH signal
outcome.measure: pIC50
Friendly reminder that pIC50 comes from taking -log10 of the concentration in mol/L.

- Cn1cc2cc(-c3ccc4cc([C@H](O)C5CC(F)(F)C5)sc4n3)cnc2n1 (single isomer, unassigned) [Compound B30R]: 9.80
- Cn1cc2cc(-c3ccc4cc(C5(O)CC6(CCC6)C5)sc4n3)cnc2n1 [Compound C25]: 9.48

Any idea what its pIC50 is? The compound is CC(C)n1cc2cc(-c3ccc4cc([C@@H](O)C5CC(F)(F)C5)sc4n3)cnc2n1 (single isomer, unassigned) [Compound B64S]
9.22

====

// IC50 lookup, one value per entry
study.system: 15-PGDH in A549 cells (Homo sapiens, UniProt P15428)
Construct: endogenous in cells; host or cells: A549
experiment: A549 cellular 15-PGDH assay (PGE2 accumulation, HTRF)
Assay type: cell-based
run.parameters: interleukin-stimulated, inhibitor 24 hrs, PGE2 by competitive HTRF, read-out: A549 Cell Assay IC50
Just the number in nM, nothing appended.

Some solved cases for reference:
* Cn1cc2cc(-c3ccc4cc([C@H](O)[C@H]5CC5(F)F)sc4n3)cnc2n1 (single isomer, unassigned) [Compound B85RR] | 0.704
* CC(C)[C@@H](O)c1cc2ccc(-c3cnc4nn(C)cc4c3)nc2s1 (single isomer, unassigned) [Compound B24R] | 0.614

Let us examine a further case.
Any idea what its IC50 is? The compound is Cn1cc2cc(-c3ccc4cc([C@@H](O)C5(C)CC(F)(F)C5)sc4n3)cnc2n1 (single isomer, unassigned) [Compound B86S]
1.61

====

study.system: 15-PGDH in A549 cells (Homo sapiens)
Construct: endogenous in cells
Sequence (P15428 1-266): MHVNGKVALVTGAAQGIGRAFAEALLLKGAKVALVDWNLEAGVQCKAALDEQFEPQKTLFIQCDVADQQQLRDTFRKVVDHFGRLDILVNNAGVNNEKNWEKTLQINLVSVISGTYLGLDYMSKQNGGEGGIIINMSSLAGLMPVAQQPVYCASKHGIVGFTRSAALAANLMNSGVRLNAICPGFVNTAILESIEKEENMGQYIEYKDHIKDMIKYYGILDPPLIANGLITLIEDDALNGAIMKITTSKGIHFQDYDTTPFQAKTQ
experiment: A549 cellular 15-PGDH assay (PGE2 accumulation, HTRF)
run.parameters: interleukin-stimulated, inhibitor 24 hrs, PGE2 by competitive HTRF, read-out: A549 Cell Assay IC50
outcome.measure: pIC50
Friendly reminder that pIC50 comes from taking -log10 of the concentration in mol/L.

Any idea what its pIC50 is? The compound is Cn1cc2cc(-c3ncc4cc([C@]5(O)C[C@@H](C(F)(F)F)C5)sc4n3)cnc2n1 [Compound C71C]
9.85

Any idea what its pIC50 is? The compound is Cn1cc2cc(-c3ccc4cc(C5(O)CCC5)sc4n3)cnc2n1
7.72

Any idea what its pIC50 is? The compound is CCn1cc2cc(-c3ccc4cc(C5(O)CC(F)(F)C5)sc4n3)cnc2n1
9.59

Any idea what its pIC50 is? The compound is CO[C@@H]1CC[C@@]1(O)c1cc2ccc(-c3cnc4nn(C)cc4c3)nc2s1 (single isomer, unassigned) [Compound C70SR]
6.76

Any idea what its pIC50 is? The compound is CCn1cc2cc(-c3ccc4cc([C@H](O)C5CC(F)(F)C5)sc4n3)cnc2n1 (single isomer, unassigned) [Compound B53R]
9.45

Any idea what its pIC50 is? The compound is C[C@H](O)c1cc2c(-c3ccnn3C)cc(-c3cnc4nn(C)cc4c3)nc2s1 (single isomer, unassigned)
6.99

Any idea what its pIC50 is? The compound is CO[C@H]1C[C@](O)(c2cc3cnc(-c4cnc5nn(C)cc5c4)nc3s2)C1 [Compound C94C]
8.84

Any idea what its pIC50 is? The compound is CO[C@]1(C)C[C@@](O)(c2cc3ccc(-c4cnc5nn(C)cc5c4)nc3s2)C1 [Compound C59C]
9.95

====

study.system: human recombinant 15-PGDH (Homo sapiens)
experiment: Recombinant 15-PGDH enzymatic inhibition assay (PGDH-Lumi, NADH signal)
run.parameters: recombinant 15-PGDH; 15 min pre-incubation, 60 min reaction with PGE2 and NAD+, NADH signal
// IC50 lookup, one value per entry
Just the number in nM, nothing appended.

Some solved cases for reference:
- Cn1cc2cc(-c3ccc4cc([C@@H](O)C5CC(F)(F)C5)ccc4n3)cnc2n1 (single isomer, unassigned): 265
- Cc1cn2cc(-c3ccc4cc([C@]5(O)C[C@@H](C(F)F)C5)sc4n3)cnc2n1 [Compound C97C]: 0.333
- Cn1cc2cc(-c3ccc4cc([C@]5(O)C[C@@H](F)C5)sc4n3)cnc2n1 [Compound C40C]: 0.742
- Cn1cc2cc(-c3ccc4cc([C@@H](O)[C@@H]5CCC5(F)F)sc4n3)cnc2n1 (single isomer, unassigned) [Compound B94SS]: 1.23
- Cn1cc2cc(-c3ccc4cc(C5(O)COC5)sc4n3)cnc2n1: 12.9

Any idea what its IC50 is? The compound is Cn1nnc2cc(-c3ccc4cc(C5(O)CC(F)(F)C5)sc4n3)cnc21
2.19

Any idea what its IC50 is? The compound is O[C@@H](c1cc2ccc(-c3cncnc3)nc2s1)C1CC(F)(F)C1 (single isomer, unassigned) [Compound B57R]
0.32

Any idea what its IC50 is? The compound is Cn1cc2cc(-c3ccc4sc([C@H](O)C5CC(F)(F)C5)cc4n3)cnc2n1 (single isomer, unassigned) [Compound B73R]
0.412

Any idea what its IC50 is? The compound is Cn1ncc2cc(-c3ccc4cc([C@H](O)C5CCOCC5)sc4n3)ccc21 (single isomer, unassigned) [Compound B34R]
12.4

Any idea what its IC50 is? The compound is Cn1cc2cc(-c3cc(C4CC4)nc4sc(C(O)C5CCC5)cc34)cnc2n1 (centres unmarked)
14.9

Any idea what its IC50 is? The compound is CO[C@H]1CC[C@]1(O)c1cc2ccc(-c3cnc4nn(C)cc4c3)nc2s1 (single isomer, unassigned) [Compound C70RS]
3860

Any idea what its IC50 is? The compound is Cn1cc2cc(-c3ccc4ccc([C@]5(O)C[C@@H](C(F)F)C5)cc4n3)cnc2n1
198

Any idea what its IC50 is? The compound is Cn1cc2cc(-c3cnc4cc([C@H](O)C5CC(F)(F)C5)sc4c3)cnc2n1 (single isomer, unassigned) [Compound B78R]
17

Any idea what its IC50 is? The compound is Cn1cc2cc(-c3ccc4cc(C(O)C5CC(F)(F)C5)sc4n3)cnc2n1 (centres unmarked)
0.26

Any idea what its IC50 is? The compound is Cn1cc2cc(-c3ccc4cc(C5(O)CCC(F)(F)CC5)sc4n3)cnc2n1
2.85

Any idea what its IC50 is? The compound is Cn1cc2cc(-c3ccc4cc([C@H](O)C5CC5)sc4n3)cnc2n1 (single isomer, unassigned) [Compound B16R]
0.325

Any idea what its IC50 is? The compound is Cn1cnc(-c2ccc3cc([C@H](O)C4CC(F)(F)C4)sc3n2)cc1=O (single isomer, unassigned) [Compound B49R]
0.26

Any idea what its IC50 is? The compound is Cn1cc2cc(-c3ccc4c(N)c([C@@H](O)C5CC(F)(F)C5)sc4n3)cnc2n1 (single isomer, unassigned) [Compound B95S]
6.43

Any idea what its IC50 is? The compound is Cn1cc2cc(-c3ccc4cc([C@@H](CO)C5CC(F)(F)C5)sc4n3)cnc2n1 (single isomer, unassigned) [Compound B80R]
46.7

Any idea what its IC50 is? The compound is Cn1cc2cc(-c3ccc4cc(C5(O)CC(F)(F)C5)sc4c3)cnc2n1
27.7
